System: rat cerebral bNOS
assayComment: inhibition of bNOS activity (nitrite production, Griess reaction)
Assay type: biochemical
assaySetup: 50 μM; 15 min; average of 4 wells
observable: bNOS Inhibition, % Inhib (%)
State the answer as a number, implicitly in %.

| compound | bNOS Inhibition, % Inhib (%) |
| --- | --- |
| Brc1ccc2c(-c3c[nH]c(-c4c[nH]c5ccccc45)n3)c[nH]c2c1 | 98.77 |

Shifting focus to the compound that follows.
Please give measured bNOS Inhibition, % Inhib of the following entry: CN1C[C@H](c2c[nH]c3c(Br)c(Br)cc(O)c23)NC[C@H]1c1c[nH]c2cc(Br)ccc12 (relative stereo)
90.27
